Molecular target: human Farnesoid X Receptor (FXR) ligand binding domain (GST-FXR LBD) (Homo sapiens)
Construct: purchased Invitrogen
Sequence (Q96RI1 193-472 isoform Q96RI1-2): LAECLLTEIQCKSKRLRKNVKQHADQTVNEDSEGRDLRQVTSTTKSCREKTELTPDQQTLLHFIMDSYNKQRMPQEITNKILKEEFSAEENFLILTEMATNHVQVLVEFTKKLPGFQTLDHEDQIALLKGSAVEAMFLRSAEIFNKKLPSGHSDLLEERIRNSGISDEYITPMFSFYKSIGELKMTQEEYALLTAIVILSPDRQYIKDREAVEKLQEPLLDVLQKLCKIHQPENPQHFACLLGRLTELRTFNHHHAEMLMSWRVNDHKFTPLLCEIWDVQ
Test: Human GST-FXR LBD co-activator interaction assay (HTRF)
Assay type: biochemical
Details: GST-FXR LBD / biotin-SRC-1 peptide FRET; response relative to GW4064; read-out: FXR Co-activator interaction assay (EC50)
EC50 strictly under 8 nM means MET; at 8 nM or over means NOT MET.

Solved entries:
[[record]]
compound = "COC(=O)c1cccc(N2C3CC[C@H]2C[C@H](OCc2c(-c4ccccc4OC(F)(F)F)noc2C2CC2)C3)n1"
class = "NOT MET"

[[record]]
compound = "O=C(O)c1ccc(N2[C@@H]3CC[C@H]2C[C@@H](OCc2c(-c4c(F)cccc4Cl)noc2C2CC2)C3)nc1"
class = "MET"

[[record]]
compound = "Cc1ccccc1-c1noc(C2CC2)c1CO[C@H]1C[C@H]2CC[C@@H](C1)N2c1ccc(C(=O)O)cn1"
class = "NOT MET"

[[record]]
compound = "NC(=O)c1cc(F)c2nc(N3C4CC[C@H]3C[C@H](OCc3c(-c5ccccc5OC(F)(F)F)noc3C3CC3)C4)sc2c1"
class = "MET"

[[record]]
compound = "COc1cc(C(=O)O)cc2sc(N3C4CC[C@H]3CC(OCc3c(-c5c(C)cccc5C)noc3C3CC3)C4)nc12 (stereo partly shown)"
class = "MET"

[[record]]
compound = "O=C(O)c1cnc(N2C3CC[C@H]2CC(OCc2c(-c4ccccc4OC(F)F)noc2C2CC2)C3)cc1C(F)(F)F (stereo partly shown)"
class = "NOT MET"


**Q:** Here's an entry: O=C(O)c1ccc2nc(N3C4CC[C@H]3CC(OCc3c(-c5ccccc5OC(F)(F)F)noc3C3CC3)C4)sc2c1 (stereo partly shown) . Is its EC50 below 8 nM?
**A:** MET

**Q:** Next record, please: COC(=O)c1cnc(N2[C@@H]3CC[C@H]2C[C@@H](OCc2c(-c4c(F)cccc4F)noc2C2CC2)C3)c(C2CC2)c1 [Example 22-17A]
**A:** NOT MET

**Q:** Next record, please: O=C(O)c1cc2nc(N3C4CC[C@H]3CC(OCc3c(-c5ccccc5C(F)(F)F)noc3C3CC3)C4)ccn2n1 (stereo partly shown)
**A:** MET

**Q:** Next record, please: Cc1c(N2C3CC[C@H]2CC(OCc2c(-c4c(F)cccc4F)noc2C2CC2)C3)ccc2oc(C(=O)O)cc12 (stereo partly shown)
**A:** MET

Entry source: patent US9150568B2
